Consider the following compounds and their measured inhibition readings.
subject of test: 5-hydroxytryptamine receptor 1A (Rattus norvegicus) (UniProt P19327)
Sequence (P19327 whole entry): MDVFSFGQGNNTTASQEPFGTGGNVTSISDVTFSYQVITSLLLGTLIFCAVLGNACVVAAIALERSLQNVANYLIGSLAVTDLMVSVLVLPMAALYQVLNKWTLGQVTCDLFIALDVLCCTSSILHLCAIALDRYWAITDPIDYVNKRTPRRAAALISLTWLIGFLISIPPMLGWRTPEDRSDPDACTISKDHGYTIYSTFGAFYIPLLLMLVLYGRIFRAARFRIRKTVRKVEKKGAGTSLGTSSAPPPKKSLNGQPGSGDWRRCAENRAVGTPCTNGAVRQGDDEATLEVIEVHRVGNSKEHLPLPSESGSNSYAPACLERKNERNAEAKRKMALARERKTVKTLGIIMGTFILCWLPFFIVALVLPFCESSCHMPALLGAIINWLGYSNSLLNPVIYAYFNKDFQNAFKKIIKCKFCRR
test details: Displacement of [3H]8-OH-DPAT from 5HT1A receptor in rat hippocampal membrane at 10^-6 M by radioligand binding assay
Format: cell membranes
assay conditions: Hippocampus
Output spec: scalar in %, unitless text.

Solved cases (8 shown):
O=c1c2cnc3ccccc3c2ncn1CCCCN1CCN(c2ccc(Cl)cc2)CC1 = 54
COc1ccccc1N1CCN(CCCn2cnc3c(cnc4ccc(C)cc43)c2=O)CC1 = 93
COc1ccccc1N1CCN(CCn2cnc3c(cnc4ccccc43)c2=O)CC1 = 93
O=c1c2cnc3ccccc3c2ncn1CCCN1CCN(c2ccccc2F)CC1 = 92
O=c1c2cnc3ccccc3c2ncn1CCCCN1CCN(c2ccccc2Cl)CC1 = 92
Cc1ccc2ncc3c(=O)n(CCCCN4CCN(c5ccc(F)cc5)CC4)cnc3c2c1 = 72
O=c1c2cnc3ccccc3c2ncn1CCN1CCN(c2ccccc2Cl)CC1 = 90
Cc1ccc2c(c1)ncc1c(=O)n(CCCCN3CCN(c4cccc(Cl)c4)CC3)cnc12 = 85

Entry "Cc1ccc2ncc3c(=O)n(CCCCN4CCN(c5cccc(Cl)c5)CC4)cnc3c2c1" : reported inhibition = ?
91

And the next one, "Cc1ccc2c(c1)ncc1c(=O)n(CCCN3CCN(c4ccccc4)CC3)cnc12" ?
86

Hey, just so you know, these numbers are from ChEMBL document CHEMBL1811770.
